system: HIV-1 RT mutant resistance test vector T69SSA; assay: Phenotypic susceptibility assay, site directed RTV T69SSA; format: cell-based; details: RTV with T69SSA vs wild type RTV; 3 replicates
As shown below, each of these compounds has a reported Average fold reduction in susceptibility value.
Report field: quantity (unit follows the number).

Examples with their reported Average fold reduction in susceptibility follow.
| Compound structure | Value reported |
| --- | --- |
| Nc1nc(NC2CC2)c2ncn([C@H]3C=C[C@@H](CO)C3)c2n1 | 2.52 fold |
| O=c1[nH]cnc2c1ncn2[C@H]1CC[C@@H](CO)O1 | 1.32 fold |
| Nc1ccn([C@H]2CC[C@@H](CO)O2)c(=O)n1 | 1.55 fold |

Let's switch to this compound now.
Qu. Recall the reported Average fold reduction in susceptibility of `Nc1ccn([C@@H]2CS[C@H](CO)O2)c(=O)n1` on HIV-1 RT mutant resistance test vector T69SSA and write it down.
Ans. 3.20 fold

====

System: HIV-1 RT mutant resistance test vector M41L-T69SSA-T215Y-RTV
Experiment: Phenotypic susceptibility assay, site directed RTV M41L+T69SSA+T215Y
Format: cell-based
Conditions: RTV with 41 + 69 + 215 (M41L, T69SSA, T215Y); 2 replicates
Experimental: Resistance tests were carried out with resistance test vectors using two host cell types. Resistance test vector viral particles were produced by a first host cell (the resistance test vector host cell) that was prepared by transfecting a packaging host cell with the resistance test vector and the packaging expression vector. The resistance test vector viral particles were then used to infect a second host cell (the target host cell) in which the expression of the indicator gene is measured. […]
Metric: Average fold reduction in susceptibility
Report field: quantity (unit follows the number).

| Compound structure | Average fold reduction in susceptibility |
| --- | --- |
| Nc1ccn([C@H]2CC[C@@H](CO)O2)c(=O)n1 | 1.41 fold |
| Nc1nc(NC2CC2)c2ncn([C@H]3C=C[C@@H](CO)C3)c2n1 | 9.69 fold |
| Nc1ccn([C@@H]2CS[C@H](CO)O2)c(=O)n1 | 6.27 fold |

Qu. Give a short answer stating reported Average fold reduction in susceptibility for `O=c1[nH]cnc2c1ncn2[C@H]1CC[C@@H](CO)O1` .
Ans. 2.02 fold
